test: Effect on nitric oxide release in pH 7.4 PBS buffer in presence of rat serum at 37 degC after 1.5 hrs; format: functional
Please respond with 1.0 when measured Activity is strictly beneath 70%, and with 0.0 in all other cases.

Query string: hey, is Activity for CS(=O)(=O)c1ccc(/C=C(/C(=O)OCO/N=[N+](/[O-])N2CCCC2)c2ccc(F)cc2)cc1 lower than 70% or not?
Result string: 1.0

Query string: Input CCN(CC)/[N+]([O-])=N/O
Result string: 0.0

Query string: Would you mind doing CS(=O)(=O)c1ccc(/C=C(/C(=O)OCO/N=[N+](/[O-])N2CCCC2)c2cccc(Br)c2)cc1 as well?
Result string: 1.0

Query string: Can you handle CC(=O)Nc1ccc(/C(=C\c2ccc(S(C)(=O)=O)cc2)C(=O)OCO/N=[N+](/[O-])N2CCCC2)cc1 next?
Result string: 0.0

Query string: CCN(CC)/[N+]([O-])=N\OCOC(=O)/C(=C/c1ccc(S(C)(=O)=O)cc1)c1ccc(F)cc1 , same question.
Result string: 0.0

Query string: Another molecule: CCN(CC)/[N+]([O-])=N\OCOC(=O)/C(=C/c1ccc(S(C)(=O)=O)cc1)c1cccc(Br)c1
Result string: 1.0
